Assay: Pharmacokinetics of CBD after oral administration, freely moving rats
Assay type: in vivo
Settings: rat, plasma; PO 15 mg/kg in PNL; calculated for infinity by the terminal slope; n = 5
Description: And dispersed in water to form a nano dispersion of about 30 nanometer. This dispersion was administered to rats by either IV or orally. For oral administration: Each molecule was dissolved (5% w/w) in pro-nano lipospheres (PNL) formulation (Table 2). Double-distilled water (DDW) was added to a final CBD concentration of 0.5% w/w in the nano-suspension. The oral formulation was administered to the animals by oral gavage with a dosage of 15 mg/kg (corrections for the salts are in Tables 4 and 5). […]
RECORDED ENDPOINT: AUC(0-inf) (ng·h/mL)

| STRUCTURE STRING | RECORDED ENDPOINT | READOUT NUMBER |
| --- | --- | --- |
| C=C(C)[C@@H]1CCC(C)=C[C@H]1c1c(O)cc(CCCCC)cc1O | AUC(0-inf) | 846 |

* * *

Recorded % of thymol regenerated for the following molecules
Test: Regeneration of thymol from thymol-salts in 0.1 N HCl
Assay type: physicochemical
Details: 0.1N HCl solution (pH = 1), 30 min, heptane extraction
Procedure: Experimental procedure for regeneration studies: Regeneration studies were performed for 2-isopropyl-5-methylphenolate-salts in the 0.1 N HCl solution (1 pH) followed by extracting free thymol with heptane. The appropriate amount of the corresponding thymol-salt (Table 12) was brought into the 20 mL glass vial. To this, 10 mL of 0.1 N was added. The resultant mixture was kept in a shaker for 30 min. After 30 min of acid treatment, 10 mL of heptane was added to the reaction mixture. […]
Counter-ions that a name gives are not always drawn.

| MOLECULE | % of thymol regenerated [%] |
| --- | --- |
| Cc1ccc(C(C)C)c(O)c1 [Thymol salt Ferrous (II)] | 97 |
| Cc1ccc(C(C)C)c([O-])c1.[Na+] [Thymol salt Sodium, sodium 2-isopropyl-5-methylphenolate] | 68 |
| Cc1ccc(C(C)C)c([O-])c1.[Li+] [Thymol salt Lithium, lithium 2-isopropyl-5-methylphenolate] | 63 |
| CCCC[N+](CCCC)(CCCC)CCCC [Thymol salt Tetrabutylammonium] | 94 |
| Cc1ccc(C(C)C)c([O-])c1.[K+] [Thymol salt Potassium, potassium 2-isopropyl-5-methylphenolate] | 57 |

* * *

Assay: Water solubility of CBD metal complexes
Type: physicochemical
Conditions: water

| STRUCTURE STRING | solubility (µg/mL) |
| --- | --- |
| C=C(C)[C@@H]1CCC(C)=C[C@H]1c1c(O)cc(CCCCC)cc1O | 12.6 |

* * *

Assay: Pharmacokinetics of CBD after IV administration, freely moving rats
Assay type: in vivo
Settings: rat; CBD in plasma; IV 1 mg/kg in PNL formulation suspended (X10) in water, until 8 hours; n = 5
RECORDED ENDPOINT: AUC(0-inf) (ng·h/mL)

| STRUCTURE STRING | RECORDED ENDPOINT | READOUT NUMBER |
| --- | --- | --- |
| C=C(C)[C@@H]1CCC(C)=C[C@H]1c1c(O)cc(CCCCC)cc1O | AUC(0-inf) | 300 |

* * *

Experiment: Pharmacokinetics of CBD after IV administration, freely moving rats
Format: in vivo
Details: rat, plasma; IV 1 mg/kg in PNL; n = 5
Description: And dispersed in water to form a nano dispersion of about 30 nanometer. This dispersion was administered to rats by either IV or orally. For IV administration: Each molecule was dissolved (2% w/w) in pro-nano lipospheres (PNL) formulation (Table 3). Double-distilled water (DDW) was added to a final CBD concentration of 0.2% w/w in the nano-suspension. […]

| STRUCTURE STRING | clearance |
| --- | --- |
| C=C(C)[C@@H]1CCC(C)=C[C@H]1c1c(O)cc(CCCCC)cc1O | 56.3 mL/min/kg |

Numbers sourced from patent US12606536B2.
